- Tested on: Mycobacterium tuberculosis variant bovis
- EXPERIMENT: In vitro minimum inhibitory concentration dissolved in DMSO against Mycobacterium bovis BCG using BACTEC 460 radiometric system
- Format: functional
MEASURED ATTRIBUTE: MIC99

The following compounds have reported results that may help.
C=CCNC(=O)OCCNC(=O)[C@@H]1C(=C)C(=O)O[C@H]1CCCCCCCC    > 25 µg/mL
C=C1C(=O)O[C@@H](CCCCCCCC)C1C(=O)OC (stereo partly drawn)    > 25 µg/mL

Continue with the compound presented below.
Read the entry C=C1C(=O)O[C@@H](CCCCCCCC)[C@@H]1C(=O)NNc1cccc(Cl)c1 and write its reported MIC99.
> 25 µg/mL
